Data credit: PubChem BioAssay AID2685

TEST: qHTS Assay for Lipid Storage Modulators in Drosophila S3 Cells;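 also: cells counted by Cell Tracker Red CMTPX staining in the red channel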
RECORDED CONDITIONS: BODIPY lipid droplet fluorescence, 18-24 h, cells fed with added oleic acid; measured here: cell count max response
The whole screen tested about 320,000 compounds, of which about 2,100 (0.66%) were called active. Inconclusive results (about 53%) are left out. The list comes from a sample in which actives are over-represented; it also holds close analogues and randomly drawn compounds.
MEASURED ATTRIBUTE: cell number change (%)
Report the value in % with no unit label.

Task item: // cell number change lookup, key: COc1ccc(CCNS(=O)(=O)c2ccc(Br)cc2)cc1OC
Reply: -6.93

Task item: Bench note: what cell number change did Cn1c(=O)c2c(SCC(=O)NCc3ccco3)nc(-c3ccccc3Cl)nc2n(C)c1=O show?
Reply: -20.7

Task item: I'd like to know its cell number change. The molecule in question is CC(C(=O)Nc1ccccc1)N1CCN(C(=O)c2ccco2)CC1 (configuration not stated)
Reply: 13.4

Task item: Which measured cell number change value corresponds to CCOc1cc(S(=O)(=O)NCc2ccccc2)ccc1Br ?
Reply: -16.8

Task item: Consider the molecule shown here: O=C(NN=C1CCCC1)c1ccccc1[N+](=O)[O-] What is its recorded cell number change?
Reply: 7.42

Task item: Can you share its cell number change? I mean this molecule: CCNS(=O)(=O)c1ccc(Br)c(OC)c1
Reply: -59.3

Task item: Report cell number change for COc1cc(/C=C(\C#N)C(=O)NCc2cccs2)ccc1O please.
Reply: -0.911

Task item: Sample Cc1cccc(NC(=O)CSc2nnc(CNC(=O)c3ccco3)o2)c1 — what was its cell number change?
Reply: -11.3

Task item: # query: cell number change of entry COc1ccc(CCNS(=O)(=O)c2ccc(Cl)cc2)cc1OC
Reply: -15.3

Task item: Please look up its cell number change: CCOC(=O)c1c(-c2ccc(C)cc2)csc1NC(=O)/C(C#N)=C/c1ccc(O)c(OC)c1
Reply: -27.7

Task item: // returns reported cell number change for input N/C(=N\OC(=O)c1cccnc1)c1ccccc1Cl
Reply: -1.5

Task item: What cell number change value was documented for this molecule, CCOc1ccccc1NS(=O)(=O)c1ccc2c(c1)n(C)c(=O)c(=O)n2C ?
Reply: -6.25

Task item: Field request: cell number change | item: Cn1c(=O)c2c(SCC(=O)N3CCOCC3)nc(-c3ccccc3Cl)nc2n(C)c1=O
Reply: -19.8

Task item: Entry CC(C)Oc1ccc(C(=O)N2CCN(C(=O)c3ccco3)CC2)cc1 : reported cell number change = ?
Reply: 19.8

Task item: Form field: reported cell number change of COc1ccc2[nH]cc(CCNS(=O)(=O)c3ccc(F)cc3)c2c1
Reply: -14.3

Task item: Requested field: cell number change. Item: CCc1nc(SCC(=O)Nc2ccc(F)cc2)c2c(=O)n(C)c(=O)n(C)c2n1
Reply: 7.11

Task item: Field request: cell number change | item: O=C(c1ccc(NS(=O)(=O)c2cccc([N+](=O)[O-])c2)cc1)N1CCCCCC1
Reply: -11.1

Task item: I have this molecule here, COc1ccc2[nH]cc(CCNS(=O)(=O)c3ccc(C)cc3)c2c1 , and I need its recorded cell number change.
Reply: 2.67

Task item: # cell number change lookup, item O=C(NC1CCCCC1)C(c1ccc(F)cc1)N(Cc1ccco1)C(=O)CN1C(=O)c2ccccc2S1(=O)=O (configuration not stated)
Reply: 11.1

Task item: I would be grateful if you could share the reported cell number change for COc1ccc(C)cc1NS(=O)(=O)c1ccc2c(c1)N(C(C)=O)CCO2 .
Reply: 6.45

Task item: Quick check: cell number change of CS(=O)(=NS(=O)(=O)c1ccc(Cl)cc1)c1ccccc1 (configuration not stated) ?
Reply: 5.26

Task item: Which cell number change value belongs to COc1cc(S(=O)(=O)NCc2ccccc2)ccc1Br ?
Reply: 5.28
